Below, each entry is listed alongside its reported log10 of Kd.
Target: T1, human FcRH5 protein fragment (soluble) (human, UniProt Q96RD9 16-851)
T1 construct: whole entry named; also called soluble human FcRH5; Human FcRH5 (BIACORE analyte)
T1 sequence: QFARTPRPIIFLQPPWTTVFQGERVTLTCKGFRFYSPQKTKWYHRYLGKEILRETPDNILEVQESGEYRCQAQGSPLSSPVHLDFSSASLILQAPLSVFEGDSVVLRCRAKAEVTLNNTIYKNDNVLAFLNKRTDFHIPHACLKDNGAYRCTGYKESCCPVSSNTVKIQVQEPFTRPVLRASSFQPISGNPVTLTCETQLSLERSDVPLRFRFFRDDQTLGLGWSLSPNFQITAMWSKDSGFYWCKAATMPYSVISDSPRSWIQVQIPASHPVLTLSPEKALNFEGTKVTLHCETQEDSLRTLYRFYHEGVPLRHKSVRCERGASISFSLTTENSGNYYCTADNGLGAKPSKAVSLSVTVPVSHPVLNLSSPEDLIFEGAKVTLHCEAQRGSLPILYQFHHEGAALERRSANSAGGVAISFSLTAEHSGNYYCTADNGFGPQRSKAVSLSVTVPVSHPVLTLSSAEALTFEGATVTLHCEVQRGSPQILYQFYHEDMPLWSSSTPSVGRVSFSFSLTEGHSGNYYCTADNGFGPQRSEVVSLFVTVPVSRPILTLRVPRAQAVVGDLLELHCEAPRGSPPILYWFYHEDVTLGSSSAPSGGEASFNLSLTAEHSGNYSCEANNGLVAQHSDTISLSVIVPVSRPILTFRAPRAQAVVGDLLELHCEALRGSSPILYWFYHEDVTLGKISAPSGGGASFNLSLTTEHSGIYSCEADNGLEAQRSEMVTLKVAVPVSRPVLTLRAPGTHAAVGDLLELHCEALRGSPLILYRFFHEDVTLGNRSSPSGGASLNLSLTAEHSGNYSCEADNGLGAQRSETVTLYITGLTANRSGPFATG
Test: SPR (BIACORE), IgG captured via anti-human IgG, FcRH5 protein fragment as analyte (100 and 500 nM)
Log10 applied to Kd; unit prior to transform: nM.

# annotated cases, reported log10 of Kd shown
binder	measured parameter	reported value
hu1G7.v1 heavy chain W52H with light chain of hu1G7.v1.6 (antibody, V domains shown, human IgG) VH: EVQLVESGPGLVKPSETLSLTCTVSGFSLTRFGVHWVRQPPGKGLEWLGVIHRGGSTDYNAAFMSRLTISKDNSKNQVSLKLSSVTAADTAVYYCSNHYYGSSDYALDNWGQGTLVTVSS VL: DIQMTQSPSSLSASVGDRVTITCKASQDVSNIVVWFQQKPGKAPKLLIYSGYYRYSGVPSRFSGSGSGTDFTLTISSLQPEDFATYYCQQQYQPPYTFGQGTKVEIK	log10 of Kd	2.04
hu1G7.v1 heavy chain W52F with light chain of hu1G7.v1 (antibody, V domains shown, human IgG) VH: EVQLVESGPGLVKPSETLSLTCTVSGFSLTRFGVHWVRQPPGKGLEWLGVIFRGGSTDYNAAFMSRLTISKDNSKNQVSLKLSSVTAADTAVYYCSNHYYGSSDYALDNWGQGTLVTVSS VL: DIQMTQSPSSLSASVGDRVTITCKASQDVSNIVVWFQQKPGKSPKLLIYSASYRYTGVPSRFSGSGSGTDFTLTISSLQPEDFATYYCQQHYSSPYTFGQGTKVEIK	log10 of Kd	2.40

Prompt line: I have this binder here, hu1G7.v1 heavy chain M64I with light chain of hu1G7.v1.5 (antibody, V domains shown, human IgG) VH: EVQLVESGPGLVKPSETLSLTCTVSGFSLTRFGVHWVRQPPGKGLEWLGVIWRGGSTDYNAAFISRLTISKDNSKNQVSLKLSSVTAADTAVYYCSNHYYGSSDYALDNWGQGTLVTVSS VL: DIQMTQSPSSLSASVGDRVTITCKASQDVSNIVVWFQQKPGKSPKLLIYSGYYRYTGVPSRFSGSGSGTDFTLTISSLQPEDFATYYCQQQFQPPYTFGQGTKVEIK , and I need its recorded log10 of Kd.
Response line: 0.43

Prompt line: Further, for hu1G7.v1 heavy chain W52Y with light chain of hu1G7.v1.3 (antibody, V domains shown, human IgG) VH: EVQLVESGPGLVKPSETLSLTCTVSGFSLTRFGVHWVRQPPGKGLEWLGVIYRGGSTDYNAAFMSRLTISKDNSKNQVSLKLSSVTAADTAVYYCSNHYYGSSDYALDNWGQGTLVTVSS VL: DIQMTQSPSSLSASVGDRVTITCKASQDVRNIVVWFQQKPGKAPKLLIYSGSYRYSGVPSRFSGSGSGTDFTLTISSLQPEDFATYYCQQQYSPPYTFGQGTKVEIK ?
Response line: 2.81

Prompt line: Entry to check: hu1G7.v1 heavy chain W52Y with light chain of hu1G7.v1 (antibody, V domains shown, human IgG) VH: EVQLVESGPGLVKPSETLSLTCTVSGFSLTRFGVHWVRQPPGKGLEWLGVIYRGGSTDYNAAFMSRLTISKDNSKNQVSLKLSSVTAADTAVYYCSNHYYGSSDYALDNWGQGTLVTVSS VL: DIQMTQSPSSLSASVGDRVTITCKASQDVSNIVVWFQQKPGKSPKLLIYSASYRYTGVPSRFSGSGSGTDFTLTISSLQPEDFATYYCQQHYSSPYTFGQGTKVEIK
Response line: 2.16

Prompt line: Also check hu1G7.v1 heavy chain M64V with light chain of hu1G7.v1.3 (antibody, V domains shown, human IgG) VH: EVQLVESGPGLVKPSETLSLTCTVSGFSLTRFGVHWVRQPPGKGLEWLGVIWRGGSTDYNAAFVSRLTISKDNSKNQVSLKLSSVTAADTAVYYCSNHYYGSSDYALDNWGQGTLVTVSS VL: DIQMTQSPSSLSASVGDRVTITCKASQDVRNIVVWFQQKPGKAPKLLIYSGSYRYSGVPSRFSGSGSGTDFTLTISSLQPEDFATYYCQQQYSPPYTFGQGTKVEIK
Response line: 0.40

Prompt line: Next binder up: hu1G7.v1 heavy chain M64L with light chain of hu1G7.v1.4 (antibody, V domains shown, human IgG) VH: EVQLVESGPGLVKPSETLSLTCTVSGFSLTRFGVHWVRQPPGKGLEWLGVIWRGGSTDYNAAFLSRLTISKDNSKNQVSLKLSSVTAADTAVYYCSNHYYGSSDYALDNWGQGTLVTVSS VL: DIQMTQSPSSLSASVGDRVTITCKASQDVRNLVVWFQQKPGKAPKLLIYSGSYRYSGVPSRFSGSGSGTDFTLTISSLQPEDFATYYCQQHYSPPYTFGQGTKVEIK
Response line: 0.40

Prompt line: # repeat for hu1G7.v1 heavy chain M64I with light chain of hu1G7.v1 (antibody, V domains shown, human IgG) VH: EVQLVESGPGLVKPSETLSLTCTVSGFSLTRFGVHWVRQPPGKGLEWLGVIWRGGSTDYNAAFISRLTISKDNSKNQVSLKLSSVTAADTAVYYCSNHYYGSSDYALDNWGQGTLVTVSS VL: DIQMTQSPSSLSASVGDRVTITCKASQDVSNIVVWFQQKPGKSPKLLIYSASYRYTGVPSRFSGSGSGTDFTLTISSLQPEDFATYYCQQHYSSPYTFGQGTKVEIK
Response line: 1.47

Prompt line: Try the binder hu1G7.v85 (hIgG1) (antibody, V domains shown, bivalent hIgG1; also called hu1G7.v1.4.M64V) VH: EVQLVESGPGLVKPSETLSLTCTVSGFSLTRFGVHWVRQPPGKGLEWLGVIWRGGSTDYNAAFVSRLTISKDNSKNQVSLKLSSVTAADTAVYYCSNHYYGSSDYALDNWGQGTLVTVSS VL: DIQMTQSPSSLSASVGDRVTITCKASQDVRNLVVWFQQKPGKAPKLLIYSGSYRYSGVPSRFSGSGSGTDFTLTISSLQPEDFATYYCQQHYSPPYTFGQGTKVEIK
Response line: 0.40

Prompt line: Here is the next binder: hu1G7.v1 heavy chain W52H with light chain of hu1G7.v1 (antibody, V domains shown, human IgG) VH: EVQLVESGPGLVKPSETLSLTCTVSGFSLTRFGVHWVRQPPGKGLEWLGVIHRGGSTDYNAAFMSRLTISKDNSKNQVSLKLSSVTAADTAVYYCSNHYYGSSDYALDNWGQGTLVTVSS VL: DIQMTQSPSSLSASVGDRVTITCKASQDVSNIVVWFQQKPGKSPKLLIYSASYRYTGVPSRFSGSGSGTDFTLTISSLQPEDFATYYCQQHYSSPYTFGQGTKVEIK
Response line: 2.08
